Where do these numbers come from? They come from ChEMBL document CHEMBL1961873.

# experimental_target: Proto-oncogene tyrosine-protein kinase ROS (Homo sapiens);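 note: value given is the mean percent inhibition of ROS kinase activity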
# test_context: at 1 µM
Listed here are molecules together with their documented inhibition.
test_readout: inhibition (%)

>>> result_value("O=C1Nc2ccc(-c3cccnc3)cc2C1=Cc1cc(Br)c(O)c(Br)c1")
18.3
>>> result_value("CS(=O)(=O)CCNCc1nc(-c2ccc3ncnc(Nc4ccc(OCc5cccc(C(F)(F)F)c5)cc4)c3c2)cs1")
4.18
>>> result_value("CCS(=O)(=O)c1ccc(OC)c(Nc2nccc(N(C)c3ccc4c(C)n[nH]c4c3)n2)c1")
51.3
>>> result_value("Cc1ccc(O)cc1Nc1ccnc2ccc(S(C)(=O)=O)cc12")
8.68
>>> result_value("NS(=O)(=O)c1ccc(N/N=C2\\C(=O)Nc3ccc(Cl)cc32)cc1")
4.73
